Tested on: Tomato
Experiment: Whole plant screen for plant growth regulator activity, tomato (TO)
Format: in vivo, Tomato (Ailsa Craig)
Details: 4000 ppm (4 kg/ha), visual score after 2-6 weeks
Description: The plant species used in this screen are presented in Table II with the leaf stage at which they were sprayed. Each chemical was applied at 4000 ppm (4 kg/ha in a 1000 l/ha field volume) using a tracksprayer and a SS8004E (Teejet) nozzle. […] After 2-6 weeks in the glasshouse, depending on the time of year, the plants were visually assessed for morphological characteristics. […]
Measured G = Greening effect by item
Measured property: G = Greening effect

>>> val("CCC(C)CCC(O)(c1cncnc1)C(C)C (stereo not drawn) [Compound 6]")
"2 (31-60%)"
>>> val("CC(C)(C)/C=C/C(O)(c1cncnc1)C1(C)CC1 (stereo not drawn) [Compound 55]")
"2 (31-60%)"
>>> val("CC(C)(C)/C=C/C(O)(c1cncnc1)C(C)(C)CF (stereo not drawn) [Compound 49]")
"1 (10-30%)"
>>> val("CC(C)CCCC(O)(c1cncnc1)C(C)C (stereo not drawn) [Compound 7]")
"2 (31-60%)"
>>> val("CC(C)CC#CC(O)(c1cncnc1)C(C)(C)C (stereo not drawn) [Compound 16]")
"2 (31-60%)"
>>> val("CC(C)(C)C(O)(C#CCCCl)c1cncnc1 (stereo not drawn) [Compound 36]")
"2 (31-60%)"
